Entries and their measured Bliss excess follow.
Test system: EW-22 (Ewing's Sarcoma);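 further: after 72 h of two-drug dosing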
assay procedure: Bliss excess, mean over the matrix (fraction); higher = more synergy
measure: Bliss excess

{"molecule": "Cc1c2c(nn1C)CSCc1cc(n(C)n1)CSc1cc(c3ccccc3c1)OCCCc1c(C(=O)O)n(C)c3c-2c(Cl)ccc13 [AZD5991] + Cn1cnc2c(F)c(Nc3ccc(Br)cc3Cl)c(C(=O)NOCCO)cc21 [Selumetinib] (first compound max 1 µM, 7x7, partner max 3 µM)", "readout value": -0.019}
{"molecule": "CC1(C)CCC(CN2CCN(c3ccc(C(=O)NS(=O)(=O)c4ccc(NCC5CCOCC5)c([N+](=O)[O-])c4)c(Oc4cnc5[nH]ccc5c4)c3)CC2)=C(c2ccc(Cl)cc2)C1 [Venetoclax] + Cc1cc2ncnn2cc1Nc1ncc2c(n1)n(C1CCOCC1)c(=O)n2C [AZD7648] (first compound max 1 µM, 7x7, partner max 10 µM)", "readout value": -0.0094}
{"molecule": "C[C@@H](Oc1cc(-c2cnn(C3CCNCC3)c2)cnc1N)c1c(Cl)ccc(F)c1Cl [Crizotinib] + Cn1cnc2c(F)c(Nc3ccc(Br)cc3Cl)c(C(=O)NOCCO)cc21 [Selumetinib] (first compound max 10 µM, 7x7, partner max 10 µM)", "readout value": -0.0226}
{"molecule": "NC1(C(=O)N[C@@H](CCO)c2ccc(Cl)cc2)CCN(c2ncnc3[nH]ccc23)CC1 [Capivasertib] + COc1nnc2ccc(N3CCC(c4ccc(OCCN5CCN(C)C(=O)[C@H]5C)cc4)CC3)nn12 [AZD5153] (first compound max 10 µM, 7x7, partner max 1 µM)", "readout value": 0.08}
